tested on: HL-60(TB) leukemia; test: NCI-60 one-dose screen, 48 h; conditions: 10 µM unless noted
This is part of a sample that, as a whole, favours compounds with a hit. Of some 83,000 tested, about 20% had one in any assay. The source made the active and inactive calls. How the source made its calls: active means growth percent below 10; inactive means the rest.
Choose the fitting class; nothing outside Y = active, N = inactive is accepted.

C=C(C)[C@@H]1CC[C@]2(C)[C@H](CC=C3[C@@H]4[C@@H](C)[C@H](C)CC[C@]4(C(N)=O)CC[C@]32C)[C@@]1(C)CCC#N :: Y
Cc1c(C(N)=O)sc2ncn(CC(=O)NN=C3CCCCC3)c(=O)c12 :: N
Cn1c2ccccc2c2nnc(NCCCCO)nc21 :: N
COc1cccc(Nc2nc(NCCO)c3ccccc3n2)c1 :: N
CC(=O)OCC(=O)[C@@]1(O)CC[C@H]2[C@@H]3CCC4=CC(=O)CC[C@]4(C)[C@@]3(F)[C@@H](O)C[C@@]21C :: N
COC(=O)[C@]12CC[C@@H](C)[C@H](C)[C@@H]1C1=CC[C@@H]3[C@@]4(C)C(c5cnco5)=C[C@@](C)(CO)C4=CC[C@@]3(C)[C@]1(C)CC2 :: N

Now turn to the next molecule.
**Query** Tell me the recorded outcome of this test for COc1cc2nc3c(=O)n(-c4ccc(C#N)cc4)cnn3c(=O)c2cc1OC .
**Result** N

====

tested on: HL-60(TB) leukemia; assay: NCI-60 one-dose screen, 48 h; details: 10 µM unless noted
About 83,000 compounds went through this panel and 20% of them were active in at least one assay; those are over-represented in the sample as a whole. Calls of active or inactive are those of the source. The calls were made as follows: active = growth percent below 10; inactive = the rest.
API: response.call in active, inactive

Look over these answered cases.
Cc1c(C(=O)NCc2ccccc2)[n+](=O)c2cc(F)ccc2n1[O-] :: inactive
Nc1nc2c([nH]1)c1[nH]c3ccccc3c1c1[nH]c3ccccc3c21 :: inactive
CC1(C)CC2=C3C=C[C@@H]4[C@@]5(C)CCC(=O)C(C)(C)[C@@H]5CC[C@@]4(C)[C@]3(C)CC[C@@]2(C(=O)O)CC1=O :: inactive
COc1ccc(Nc2nc(SCC(C)C)nc(-c3ccc(F)cc3)c2C#N)cc1 :: inactive
N#Cc1c(-c2ccc(C(F)(F)F)cc2)cc(NCC2CCS(=O)(=O)CC2)n2c1nc1ccccc12 :: inactive

Shifting focus to the molecule that follows.
**Query** Called result for CCOc1nc(-c2ccccc2)cc2c(O)c(C(=O)N/N=C/c3ccccc3O)[nH]c(=O)c12
**Result** inactive

====

system: HL-60(TB) leukemia; assay: NCI-60 one-dose screen, 48 h; settings: 10 µM unless noted
Compounds without any hit were thinned out: in the full panel of roughly 83,000, 20% have a hit. The source made the active and inactive calls. The calls were made as follows: active = growth percent below 10; inactive = the rest.
Outcomes you can answer with include only these: t (active), f (inactive)

Field: example entries. Status: answers known.
COc1ccc(C(=O)/C=C/c2c[n+](=O)c3ccc(F)cc3n2[O-])cc1 :: f
O=C(O)c1ccc(Br)nc1 :: f

**Query** GET /call?item= CCCCCC(=O)OCC(=O)O[C@@H]1C[C@]2(C(C)C)O[C@@]1(C)[C@@H]1CC[C@@H](C)[C@H]1[C@@H]2OC(=O)/C=C/c1ccccc1 returns the recorded outcome of this test.
**Result** f

**Query** State the result this test recorded for COc1ccc(OC)c(/C=C2\Oc3cc(OCCN4CCC(Cc5ccccc5)CC4)ccc3C2=O)c1 .
**Result** f

**Query** What outcome does the record of this test show for Nc1ccccc1SC1CC(=O)N(c2cccc3ccccc23)C1=O (stereo not given) ?
**Result** f

**Query** Status in this test for O=C1CC(=NCC(=O)n2c(-c3ccccc3)nc3ccccc32)NN1 ?
**Result** f

**Query** What was the test verdict on COc1ccc2c(c1)sc1nc(-c3ccc(Br)cc3)cn12 ?
**Result** f

**Query** Lab log entry: c1cc2ccc1CNCCN1CCNCc3ccc(cc3)Oc3ccc(cc3)CNCCN(CCNCc3ccc(cc3)O2)CCNCc2ccc(cc2)Oc2ccc(cc2)CNCC1 — outcome as called in the assay?
**Result** t

**Query** Assay outcome for O=C1Nc2ccc(I)cc2C1=O : what was it?
**Result** f

**Query** Test call, this compound: Nc1ncnc2c1C(c1ccccc1)c1ccc3ccccc3c1O2 (stereo not given)
**Result** f
